pKi: −log10 of the molar value.
Below, pKi values reported for 5-hydroxytryptamine receptor 4 (Cavia porcellus) across several publications.
measured_parameter: pKi

1. COc1cc(N)c(Cl)cc1C(=O)OCCN1CCC(NC(=O)OC(C)(C)C)CC1 :: 7.52
2. CCN1CCN(CCNC(=O)n2c(=O)n(CC)c3ccccc32)CC1 :: 7.75
3. COc1cc(C(=O)OCCN2CCCCC2)c2ccccc2n1 :: 7.82
4. CC(C)n1c(=O)n(C(=O)NCCN2CCN(C)CC2)c2cc(F)ccc21 :: 6.96

1. CCCCN1CCC(COc2nc3ccccc3c3c2CCCN3)CC1
2. CCCCN1CCN(CCNC(=O)n2c(=O)n(CC)c3ccccc32)CC1
3. O=C(OC[C@@H]1CCN2CCC[C@@H]12)c1[nH]nc2ccccc12 (single isomer, unassigned)
4. Cc1csc2nc(OCC3CCN(C/C=C/I)CC3)c3cccn3c12
5. O=C1c2cc(Cl)nc3cccc(c23)CN1CCCN1CCCCC1
Please list the entries, largest pKi first. Response format: the labels, sorted as the prompt asks.
3, 1, 2, 4, 5
(3: 9.10, 1: 8.00, 2: 7.47, 4: 6.89, 5: 6.25)

I. CCN1CCC(COc2nc3ccccc3c3c2CCCN3)CC1
II. CCn1c(=O)n(C(=O)NCCN2CCN(C)CC2)c2ccccc21
III. COc1cc(N)c(Cl)cc1C(=O)NC1CCN(C)CC1
IV. CCCCN1CCC(COC(=O)c2cc(C3CC3)nc3ccccc23)CC1
Please order the records by their reported pKi, lowest number first. Ranked list of labels, please, in the requested order.
III, II, I, IV
(III: 6.08, II: 7.12, I: 7.88, IV: 9.36)

###

pKi: −log10 of the molar value.
Literature compilation of pKi measurements on 5-hydroxytryptamine receptor 4 (Cavia porcellus).
Sequence (O70528 whole entry): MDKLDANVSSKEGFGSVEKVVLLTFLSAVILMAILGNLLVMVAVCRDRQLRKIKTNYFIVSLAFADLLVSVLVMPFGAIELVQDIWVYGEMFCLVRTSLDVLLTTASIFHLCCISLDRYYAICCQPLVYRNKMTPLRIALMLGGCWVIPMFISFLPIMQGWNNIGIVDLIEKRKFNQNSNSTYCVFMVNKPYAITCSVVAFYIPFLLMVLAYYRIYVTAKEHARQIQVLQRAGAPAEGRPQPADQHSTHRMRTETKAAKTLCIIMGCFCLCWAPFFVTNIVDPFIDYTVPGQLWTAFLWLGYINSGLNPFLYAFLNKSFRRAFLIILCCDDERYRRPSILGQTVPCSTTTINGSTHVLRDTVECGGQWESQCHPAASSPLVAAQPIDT

Solved cases below.
1. N[C@H](CN1CCN(c2nc3cc(F)ccc3n3cccc23)CC1)C(=O)O :: < 5.00
2. O=C1c2cccc3nc(N4CCCC4)cc(c23)C(=O)N1CCCN1CCCCC1 :: < 6.00
3. CCCCN1CCC(CNC(=O)c2cc(OC)nc3ccccc23)CC1 :: < 6.00

Now look at this entry.
# pKi of Fc1ccc2c(c1)nc(N1CCN(Cc3cnc[nH]3)CC1)c1cccn12 = < 5.00
